Numbers sourced from PubChem BioAssay AID1159580.

Reported normalized growth values are given for each entry in this list.
PROCEDURE TEXT: chemical genetic growth profiling, strain panel (AID 1159580);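 note: tested at 20 µM; growth read once vehicle control cultures reached saturation at 30 °C; 1 = growth at the plate median or of vehicle wells; lower values mean less growth of the strain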
MEASUREMENT CONDITIONS: S. cerevisiae deletion strains, growth OD, locus YOR061W, strain CKA2, hits give low values
In all, about 5,500 compounds went through this assay and about 2,000 (36%) were called active. Not shown: some 18% with an inconclusive outcome. The list shows a part of the results.
The reply should be a number, written without any unit.

State the recorded normalized growth for this entry: "COc1nc(NC(C)C)nc(NC(C)C)n1" 1

State the recorded normalized growth for this entry: "Cc1cc(Br)c(O)c(/C=N\NC(=S)NC(C)(C)C)c1" 0.91

State the recorded normalized growth for this entry: "COc1cc(C)c2c(=O)c3c(O)cc(OC)cc3oc2c1" 1.02

State the recorded normalized growth for this entry: CC1(C)C(=O)CC[C@@]2(C)C1C[C@@H](O)[C@@]1(C)C3=CC(=O)O[C@@H](c4ccoc4)[C@]3(C)CCC21 (stereo not given in full) 1.01

State the recorded normalized growth for this entry: "CC(C)Nc1nc(Cl)nc(NC(C)C)n1" 0.998

State the recorded normalized growth for this entry: "O=S(=O)(Nc1ccccc1Sc1c(Cl)cncc1Cl)c1ccc(Cl)cc1" 0.991

State the recorded normalized growth for this entry: "COc1cc(C)c2c(=O)c3c(O)cc(O)cc3oc2c1" 0.982

State the recorded normalized growth for this entry: CCC(=O)OCC(=O)[C@@]1(OC(=O)CC)[C@@H](C)CC2C3CCC4=CC(=O)C=C[C@]4(C)C3(F)[C@@H](O)C[C@@]21C (stereo not given in full) 0.93

State the recorded normalized growth for this entry: "CSc1nc(NC(C)C)nc(NC(C)C)n1" 1

----------
PROCEDURE TEXT: chemical genetic growth profiling, strain panel (AID 1159580)
MEASUREMENT CONDITIONS: S. cerevisiae deletion strains, growth OD, locus YAL013W, strain DEP1
The campaign covered roughly 5,500 compounds. About 2,000 (36%) were called active. About 18% were inconclusive and are not listed. Cut-off read from the data, not from the text of the source: active = normalized growth mostly below about 0.91 (no sharp cut-off); inconclusive = no clear call, values can overlap the other calls; inactive = mostly above about 0.92. This is one part of the list.
Use one of these outcomes when replying: yes = active, no = inactive

Could you check what this test reported for COC1CC(O[C@H]2CC[C@]3(C=O)C4CC[C@]5(C)C(C6=CC(=O)OC6)CC[C@]5(O)C4CC[C@]3(O)C2)OC(C)C1O (stereo partly drawn) ? no

----------
PROCEDURE TEXT: chemical genetic growth profiling, strain panel (AID 1159580)
MEASUREMENT CONDITIONS: S. cerevisiae deletion strains, growth OD, locus YPR163C, strain tif3, hits give low values
In all, about 5,500 compounds went through this assay and about 2,000 (36%) were called active. Roughly 18% stayed inconclusive and do not appear here. The list shows a part of the results.
Reported normalized growth values are given for each entry in this list.
The reply should be a number, written without any unit.

Some solved entries appear below for comparison.
INSERT INTO results (compound, test_value) VALUES
  ('C[C@]12CCC(=O)C=C1CCc1ccc(O)cc12', 0.984),
  ('COC(=O)C(N)CS (stereo unspecified)', 0.887),
  ('CCOC(=O)C1=C(O)C(=O)N(Cc2ccccc2)C1', 1.01);

State the recorded normalized growth for this entry: CC(C)=CC1C(CO)C1(C)C (stereo unspecified) 0.99

State the recorded normalized growth for this entry: "CC1=CC(=O)C(C(C)C)=CC1=O" 0.725

State the recorded normalized growth for this entry: "COc1ccc(-c2cc(=O)c3c(O)cc(O)cc3o2)cc1" 0.991

State the recorded normalized growth for this entry: COC1=CC(C)[C@@H]2C[C@H]3OC(=O)C[C@H]4C(C)=C(OC)C(=O)C([C@@]34C)[C@@]2(C)C1=O (stereo partly specified) 1.01

State the recorded normalized growth for this entry: "NC[C@H]1O[C@H](O[C@H]2[C@H](O)[C@@H](O[C@H]3O[C@H](CO)[C@@H](O)[C@H](N)[C@H]3O)[C@H](N)C[C@@H]2N)[C@H](N)[C@@H](O)[C@@H]1O" 0.998

State the recorded normalized growth for this entry: "COc1cccc2c1CCC1=CC(=O)CC[C@@]12C" 0.979

State the recorded normalized growth for this entry: "COc1ccc(-c2cc(=O)c3c(O)c(OC)c(O[C@H]4O[C@H](CO[C@@H]5O[C@@H](C)[C@H](O)[C@@H](O)[C@H]5O)[C@@H](O)[C@H](O)[C@H]4O)cc3o2)cc1" 0.999

State the recorded normalized growth for this entry: "Nc1ccc(S(=O)(=O)Nc2ncccn2)cc1" 1

----------
PROCEDURE TEXT: chemical genetic growth profiling, strain panel (AID 1159580);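 note: tested at 20 µM; growth read once vehicle control cultures reached saturation at 30 °C; 1 = growth at the plate median or of vehicle wells; lower values mean less growth of the strain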
MEASUREMENT CONDITIONS: S. cerevisiae deletion strains, growth OD, locus YMR277W, strain FCP1
The whole screen tested about 5,500 compounds, of which about 2,000 (36%) were called active. Inconclusive results (about 18%) are left out. Cut-off read from the data, not from the text of the source: active = normalized growth mostly below about 0.91 (no sharp cut-off); inconclusive = no clear call, values can overlap the other calls; inactive = mostly above about 0.92. The list shows a part of the results.
Use one of these outcomes when replying: active, inactive

Consider the worked cases shown below.
INSERT INTO results (compound, discrete_label) VALUES
  ('Cc1cc(Br)c(O)c(/C=N\NC(=S)NC(C)(C)C)c1', 'inactive'),
  ('COc1ccc(Br)c(C(=O)/C(C#N)=C/c2cccs2)c1', 'active'),
  ('CCCCCCCCCCCCSc1ncn[nH]1', 'inactive'),
  ('C/C(=N/NC(N)=S)c1csc(-c2ccccc2)n1', 'inactive');

Could you check what this test reported for "CO/N=C1/CC(C)(C)Cc2c(-c3ccn(C(=O)Nc4cccc(Cl)c4)n3)sc(SC)c21" ? inactive

Could you check what this test reported for "Cc1ccc(OS(=O)(=O)c2c(Cl)sc(Cl)c2Br)c([N+](=O)[O-])n1" ? inactive

Could you check what this test reported for COc1ccccc1N1CCN(C(=O)C(C)c2ccc(CC(C)C)cc2)CC1 (stereo unspecified) ? inactive

Could you check what this test reported for "Cc1cc(-c2onc(C)c2C(=O)Sc2ccccc2)no1" ? inactive

Could you check what this test reported for "COc1ccc(N=C2SCC(c3ccc(C)cc3)=NN2CCO)cc1" ? inactive

Could you check what this test reported for "O=C1/C(=C/c2c[nH]c3ccccc23)CSc2ccccc21" ? inactive

Could you check what this test reported for "CC(C)(C)NC(=S)N/N=C\c1cc(Br)c(O)c(Br)c1" ? inactive

----------
Reported normalized growth values are given for each entry in this list.
PROCEDURE TEXT: chemical genetic growth profiling, strain panel (AID 1159580);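 note: tested at 20 µM; growth read once vehicle control cultures reached saturation at 30 °C; 1 = growth at the plate median or of vehicle wells; lower values mean less growth of the strain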
MEASUREMENT CONDITIONS: S. cerevisiae deletion strains, growth OD, locus YBR171W, strain sec66, hits give low values
About 2,000 (36%) of roughly 5,500 compounds were called active. Another 18% or so got no clear call; they are omitted. The list shows a part of the results.
The reply should be a number, written without any unit.

INSERT INTO assay_data (molecule, test_value) VALUES
  ('COC(=O)C[C@H]1C(C)(C)[C@@H](O)[C@@H]2CC3=C4CC(O)O[C@@H](c5ccoc5)[C@]4(C)CCC3[C@@]1(C)C2=O (stereo partly drawn)', 1.05),
  ('CC12CCC(=O)C=C1CCc1ccccc12 (stereo not drawn)', 0.972);

Continue with the next molecule.
State the recorded normalized growth for this entry: C[C@H]1O[C@H](O[C@H]2[C@H](O)[C@@H](O)[C@@H](O[C@H]3[C@H](O)[C@@H](O)C(O)O[C@@H]3CO)O[C@@H]2CO)[C@H](O)[C@@H](O)[C@@H]1N[C@H]1C=C(CO)[C@@H](O)[C@H](O)[C@H]1O (stereo partly drawn) 0.979

----------
PROCEDURE TEXT: chemical genetic growth profiling, strain panel (AID 1159580);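 note: tested at 20 µM; growth read once vehicle control cultures reached saturation at 30 °C; 1 = growth at the plate median or of vehicle wells; lower values mean less growth of the strain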
MEASUREMENT CONDITIONS: S. cerevisiae deletion strains, growth OD, locus YAL030W, strain snc1, hits give low values
Among all 5,500 compounds or so, about 2,000 (36%) were called active. Not shown: some 18% with an inconclusive outcome. The list shows a part of the results.
Reported normalized growth values are given for each entry in this list.

INSERT INTO assay_data (compound, recorded_metric, test_value) VALUES
  ('COC1C(O)C(O[C@H]2CC[C@]3(C=O)C4C(CC[C@]3(O)C2)[C@@]2(O)CC[C@H](C3=CC(=O)OC3)[C@@]2(C)C[C@H]4OC(C)=O)OC(C)C1OC(C)=O (stereo partly drawn)', 'normalized growth', '0.977 (inactive)');

State the recorded normalized growth for this entry: C[C@H]1O[C@@H](O[C@H]2[C@@H](O)C[C@H](O[C@H]3[C@@H](O)C[C@H](O[C@H]4CC[C@]5(C)C6C[C@@H](O)[C@]7(C)[C@@H](C8=CC(=O)OC8)CC[C@]7(O)C6CC[C@@H]5C4)O[C@@H]3C)O[C@@H]2C)C[C@H](O)[C@@H]1O (stereo partly drawn) 0.991 (inactive)

State the recorded normalized growth for this entry: "COc1ccc(-c2cc(=O)c3c(O)cc(O)c(-c4cc(-c5cc(=O)c6c(O)cc(O)cc6o5)ccc4OC)c3o2)cc1" 0.997 (inactive)

State the recorded normalized growth for this entry: "CN(C)CC[C@H](c1ccc(Cl)cc1)c1ccccn1" 1 (inactive)

State the recorded normalized growth for this entry: "NC(=O)c1ccccc1O" 0.966 (inactive)

State the recorded normalized growth for this entry: "O=C(O)c1ccccc1O" 0.992 (inactive)

State the recorded normalized growth for this entry: "COc1cc2c(cc1OC)-c1c(oc3cc(O)cc(O)c3c1=O)CO2" 1.01 (inactive)

State the recorded normalized growth for this entry: "NC[C@H]1O[C@H](O[C@H]2[C@H](O)[C@@H](O[C@H]3O[C@H](CO)[C@@H](O)[C@H](N)[C@H]3O)[C@H](N)C[C@@H]2N)[C@H](N)[C@@H](O)[C@@H]1O" 0.996 (inactive)
